The molecules listed here are annotated with their composite z-score.
# assay.info: binders of probe aHhip on microarray, primary screen, stem cell growth factor project, biochemical, small-molecule microarray, fluorescence 635/667 (AID 1087);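 note: score merges spot fluorescence at 667nm with spot signal to noise ratio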
# test.parameters: higher = more signal
property: composite z-score

[[record]]
smiles_data = "COC(=O)[C@@]1(Cc2ccccc2)[C@H]2c3cc(C(=O)N(C)C)n(CCF)c3C[C@H]2CN1C(=O)c1ccccc1"
property = "composite z-score"
meas_value = -0.0296

[[record]]
smiles_data = "O=C1C[C@@](C(=O)NCC(F)(F)F)(c2ccc([N+](=O)[O-])cc2)[C@@H](c2ccc(CO)cc2I)N1CC12CC3CC(CC(C3)C1)C2"
property = "composite z-score"
meas_value = -0.239

[[record]]
smiles_data = "C=CCNC(=O)[C@H]1[C@@H]2C(=O)O[C@@H](c3ccccc3)[C@@H](c3ccccc3)N2[C@@H](c2ccc(O)cc2)[C@]12C(=O)N(C(=O)OCCOC)c1ccc(C#Cc3ccc(OC)cc3)cc12"
property = "composite z-score"
meas_value = -0.0672

[[record]]
smiles_data = "COc1cccc(C)c1NC(=O)O[C@H]1[C@H](OC(=O)Nc2ccc3c(c2)OCO3)[C@H](OC(=O)Nc2ccc3c(c2)OCO3)[C@@H](OC)O[C@@H]1CO"
property = "composite z-score"
meas_value = 0.12

[[record]]
smiles_data = "C=CCOC(=O)[C@@H]1[C@H]2C(=O)O[C@H](c3ccccc3)[C@H](c3ccccc3)N2[C@H](c2ccc(OCCOC(=O)[C@@H]3C[C@@H]4C(=O)N[C@@H](CC(C)C)C(=O)N4[C@@H]3c3ccc(O)cc3)cc2)[C@@]12C(=O)Nc1ccc(I)cc12"
property = "composite z-score"
meas_value = 0.383


====

Reported z-score values follow for various compounds
# assay.info: yeast growth modulation, basal conditions, primary screen, YJM789 clinical isolate, OD600, 24 h (AID 1089);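 note: growth of clinical yeast isolate S. cerevisiae YJM 789 seeded 1000 cells per well; test concentration not given here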
# test.parameters: S. cerevisiae YJM789 growth, higher = more signal, called active from +8 up or from −8 down
The source made the active and inactive calls.
property: z-score

[[record]]
smiles_data = "C=C[C@H](OC)[C@@H](O)c1ccc(OC)c(O)c1"
property = "z-score"
meas_value = "0.0615 (inactive)"

[[record]]
smiles_data = "COc1ccc(C#Cc2ccc3c(c2)[C@]2(C(=O)N3)[C@H](c3ccccc3OCCO)N3[C@H](c4ccccc4)[C@H](c4ccccc4)OC(=O)[C@H]3[C@@H]2C(=O)NC[C@H](O)c2ccccc2)cc1"
property = "z-score"
meas_value = "2.42 (inactive)"

[[record]]
smiles_data = "C[C@@]1([C@@H](NS(=O)(=O)c2cccc3cccnc23)c2ccc(-c3ccccc3)cc2)C[C@H]1C1CCCCC1"
property = "z-score"
meas_value = "0.523 (inactive)"

[[record]]
smiles_data = "Cc1cccc([C@H]2C[C@H]3C(Br)=C[C@@]2(CO)C(=O)[C@]32CO2)c1"
property = "z-score"
meas_value = "-1.54 (inactive)"


====

# tgt: NADPH oxidase 2 (Homo sapiens) (UniProt P04839)
# Sequence (P04839 whole entry, looked up): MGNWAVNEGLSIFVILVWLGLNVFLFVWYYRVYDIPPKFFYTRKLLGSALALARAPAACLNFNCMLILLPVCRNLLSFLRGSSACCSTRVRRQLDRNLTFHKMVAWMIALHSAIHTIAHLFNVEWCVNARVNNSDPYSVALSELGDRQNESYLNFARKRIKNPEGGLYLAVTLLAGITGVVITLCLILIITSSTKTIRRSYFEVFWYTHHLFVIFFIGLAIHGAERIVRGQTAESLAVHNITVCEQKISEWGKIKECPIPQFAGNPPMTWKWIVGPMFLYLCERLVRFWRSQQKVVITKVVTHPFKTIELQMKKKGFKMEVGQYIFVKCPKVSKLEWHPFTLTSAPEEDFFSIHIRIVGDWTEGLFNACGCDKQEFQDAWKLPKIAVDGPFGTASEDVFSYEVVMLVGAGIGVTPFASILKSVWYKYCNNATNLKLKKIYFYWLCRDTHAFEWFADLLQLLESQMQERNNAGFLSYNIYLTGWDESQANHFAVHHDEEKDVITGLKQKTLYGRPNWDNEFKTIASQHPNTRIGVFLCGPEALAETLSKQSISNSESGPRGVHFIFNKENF
# assay.info: NOX2-dependent H2O2 signal modulators, primary screen, NOX inhibitor project, cell-based, HEK293-NOX2, PMA-stimulated, Amplex Red fluorescence (AID 1159); note: test concentration not given here
# test.parameters: 45 min, higher = more signal, called active from +8 up or from −8 down
Category scheme (z-score): low class (below 0.4), middle class (0.4 to below 1), high class (1 or more)

[[record]]
molecule = "CCCCCN1CC=CC23O[C@@H]4/C=C\\CCCOC(=O)C4[C@H]2C(=O)N(CCO)[C@@H]3C1=O (stereo partly specified)"
label_class = "middle class"

[[record]]
molecule = "CCCCCCc1nc(Cc2cc(OC)c(OC)c(OC)c2)c(C)c2c1[Si](C(C)C)(C(C)C)OC2"
label_class = "low class"

[[record]]
molecule = "COC(=O)[C@@]1(Cc2ccc(F)cc2)[C@H]2c3cc(C(=O)N(C)C)n(Cc4ccsc4Br)c3C[C@H]2CN1C(=O)c1ccccc1"
label_class = "low class"

[[record]]
molecule = "COc1ccc(C(=O)Nc2ccc(CN3C(=O)[C@]4(O[C@H](CC(=O)N(CCO)Cc5ccccc5)[C@@H]([Si](C)(C)c5ccc(OC)cc5)[C@@H]4C)c4ccccc43)cc2)cc1"
label_class = "middle class"

[[record]]
molecule = "COC(=O)[C@@]1(Cc2ccccc2)[C@H]2c3cc(C(=O)N(C)C)n(Cc4nc5ccccc5[nH]4)c3C[C@H]2CN1C(=O)c1ccccc1"
label_class = "low class"

[[record]]
molecule = "CCCCCCc1nc(-c2ccc(OC)nc2)c(C)c2c1[Si](C(C)C)(C(C)C)OC2"
label_class = "low class"

[[record]]
molecule = "C=CCNC(=O)[C@@H]1[C@H]2C(=O)O[C@H](c3ccccc3)[C@H](c3ccccc3)N2[C@H](c2ccc(O)cc2)[C@@]12C(=O)N(C(=O)OCCOC)c1ccc(C#CCC(C(=O)OC)C(=O)OC)cc12"
label_class = "middle class"

[[record]]
molecule = "CCCCC(=C=CC[C@@H](O)c1ccc(OCCO)cc1)CCO"
label_class = "high class"

[[record]]
molecule = "CCOC(=O)C[C@H]1[C@H](OC(=O)c2ccc(-c3ccccc3)cc2)[C@@H](NC(=O)c2ccc(-c3ccccc3)cc2)c2cc(OCCCO)ccc2N1C(=O)c1ccccc1"
label_class = "middle class"

[[record]]
molecule = "Cc1ccc(S[C@]2(C(=O)NCC(C)C)CC(=O)N(C(C)C)[C@@H]2c2ccc(CO)cc2I)cc1"
label_class = "high class"

[[record]]
molecule = "C=CCNC(=O)[C@@H]1[C@H]2C(=O)O[C@H](c3ccccc3)[C@H](c3ccccc3)N2[C@H](c2ccc(OCCO)cc2)[C@@]12C(=O)Nc1ccc(C#CCNC(N)=O)cc12"
label_class = "high class"

[[record]]
molecule = "COCCOC(=O)N1C(=O)[C@@]2(c3cc(C#CCCO)ccc31)[C@H](C(=O)N1CCN(c3ncccn3)CC1)[C@H]1C(=O)O[C@H](c3ccccc3)[C@H](c3ccccc3)N1[C@@H]2c1ccc(OCCO)cc1"
label_class = "high class"

[[record]]
molecule = "COC(=O)C1(CC(C)C)C=C2C(=C(C)C(=O)C2C)CN1 (stereo unspecified)"
label_class = "middle class"

[[record]]
molecule = "CN1C(=O)C2C=CC(C(O)c3ccc([N+](=O)[O-])cc3)N(Nc3ccccc3)C2C1=O (stereo unspecified)"
label_class = "low class"

[[record]]
molecule = "COC(=O)C(CC#Cc1ccc2c(c1)[C@]1(C(=O)N2)[C@H](C(=O)N2CCN(c3ncccn3)CC2)[C@H]2C(=O)O[C@H](c3ccccc3)[C@H](c3ccccc3)N2[C@@H]1c1ccc(O)cc1)C(=O)OC"
label_class = "high class"

